Tested System: T1, MERS spike protein (MERS-CoV, UniProt K9N5Q8 18-1296)
T1 chain: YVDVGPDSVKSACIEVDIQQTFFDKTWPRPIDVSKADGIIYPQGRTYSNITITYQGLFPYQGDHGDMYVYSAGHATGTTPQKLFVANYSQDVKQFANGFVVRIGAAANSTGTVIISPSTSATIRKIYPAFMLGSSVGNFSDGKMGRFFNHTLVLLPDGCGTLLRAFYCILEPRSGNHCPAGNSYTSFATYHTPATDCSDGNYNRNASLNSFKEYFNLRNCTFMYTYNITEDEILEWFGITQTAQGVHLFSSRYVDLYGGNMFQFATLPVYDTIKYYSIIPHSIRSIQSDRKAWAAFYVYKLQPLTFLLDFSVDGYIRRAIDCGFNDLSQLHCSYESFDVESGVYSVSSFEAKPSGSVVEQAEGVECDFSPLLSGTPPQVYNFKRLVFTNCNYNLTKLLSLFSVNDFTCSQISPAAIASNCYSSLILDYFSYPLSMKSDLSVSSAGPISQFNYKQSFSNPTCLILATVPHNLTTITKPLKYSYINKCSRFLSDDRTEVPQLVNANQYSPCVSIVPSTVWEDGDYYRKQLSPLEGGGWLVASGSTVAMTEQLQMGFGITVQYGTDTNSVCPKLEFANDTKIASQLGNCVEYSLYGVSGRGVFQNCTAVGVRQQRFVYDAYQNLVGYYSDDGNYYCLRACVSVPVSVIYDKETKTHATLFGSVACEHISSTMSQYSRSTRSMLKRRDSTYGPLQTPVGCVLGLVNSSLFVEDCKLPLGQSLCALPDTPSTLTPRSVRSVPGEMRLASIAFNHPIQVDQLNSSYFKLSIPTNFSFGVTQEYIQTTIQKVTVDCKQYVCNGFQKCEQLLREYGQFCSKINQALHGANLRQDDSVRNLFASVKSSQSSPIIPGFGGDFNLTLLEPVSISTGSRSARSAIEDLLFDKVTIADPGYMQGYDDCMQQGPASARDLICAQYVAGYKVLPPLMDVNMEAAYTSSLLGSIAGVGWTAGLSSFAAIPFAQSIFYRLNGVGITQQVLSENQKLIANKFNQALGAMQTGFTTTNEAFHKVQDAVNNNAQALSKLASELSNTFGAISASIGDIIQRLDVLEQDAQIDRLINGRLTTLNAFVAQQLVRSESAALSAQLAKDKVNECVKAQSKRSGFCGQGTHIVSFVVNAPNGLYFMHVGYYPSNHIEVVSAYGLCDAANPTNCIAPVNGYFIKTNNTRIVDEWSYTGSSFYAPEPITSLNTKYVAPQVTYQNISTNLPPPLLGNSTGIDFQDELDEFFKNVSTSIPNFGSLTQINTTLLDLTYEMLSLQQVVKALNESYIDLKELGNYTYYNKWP
Experiment Description: ELISA
Task for the reader: assign each of the following binders its reported pEC50.
One number for each entry, as −log10 of the molar value.

Study these solved cases before continuing.
{"Binder": "9-F6-A (antibody, V domains shown) VH: EVQLQQSGPELVKPGASVKMSCKASGYTFTSYIMHWVKQKPGQGLEWIGYILPYNDGTKYNEKFKGKATLTSDKSSSTAYMELRSLTSEDSAVYYCARWGYSNFLDSWGQGTTLTVSS VL: DIQMTQTTSSLSASLGDRVTISCRASQDINNYLNWYQQKPDGTVKLLIYYTSRLHSGVPSRFSGSGSGTDYSLTIRNLEQEDIATYFCQQGNTLPPTFGGGTKLEIK", "pEC50": 8.78}
{"Binder": "6-O12-A (antibody, V domains shown) VH: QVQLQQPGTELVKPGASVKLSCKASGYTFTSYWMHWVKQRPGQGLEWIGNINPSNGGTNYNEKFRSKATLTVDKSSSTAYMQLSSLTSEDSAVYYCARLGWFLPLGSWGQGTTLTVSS VL: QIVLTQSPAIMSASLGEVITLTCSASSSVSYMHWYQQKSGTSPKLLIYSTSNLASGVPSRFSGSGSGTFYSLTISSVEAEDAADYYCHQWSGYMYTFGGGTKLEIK", "pEC50": 9.60}
{"Binder": "7-D7-A (antibody, V domains shown) VH: QVQLKESGPGLVAPSQSLSITCTVSGFSLTSYAISWVRQPPGKGLEWLGVIWPGGGTNYNSALKSRLSISKDNSKSQVFLKMNSLQTDDTAKYYCARTGYYFDYWGQGTTLTVSS VL: QLILTQSPAIMSASPGEKVTMTCSASLSVNYMYWFQQKPGTSPKRWIHDTSKLASGVPARFSGSGSGTSYSLTISSMEAEDAATYYCQQWSSNPPMYTFGGGTKLEIK", "pEC50": 9.05}

// returns reported pEC50 for input 2-J9-A (antibody, V domains shown) VH: EVQLQQSGPELVKPGASVKMSCKASGYTFTDYNIHWVKQSHGKSLEWIGYINPNNGGTDYNQKFQGKATLTVNKSSSTAYMELRSLTSEDSAVYYCARGGFYGNYGAYYGMDFWGQGTSVTVSS VL: DIQMTQSPASLSASVGETVTITCRTSENIYSHLAWYQQTQGKSPQLLVYNTKTLAEGVPSRFTGSGSGTQFSLKINSLQPEDFGSYYCQHHYGIPPEFGGGTKLEIK
8.74
